- TARGET_UNDER_TEST: Plasma kallikrein (Homo sapiens, UniProt P03952)
- Sequence (P03952 20-390 limits assumed): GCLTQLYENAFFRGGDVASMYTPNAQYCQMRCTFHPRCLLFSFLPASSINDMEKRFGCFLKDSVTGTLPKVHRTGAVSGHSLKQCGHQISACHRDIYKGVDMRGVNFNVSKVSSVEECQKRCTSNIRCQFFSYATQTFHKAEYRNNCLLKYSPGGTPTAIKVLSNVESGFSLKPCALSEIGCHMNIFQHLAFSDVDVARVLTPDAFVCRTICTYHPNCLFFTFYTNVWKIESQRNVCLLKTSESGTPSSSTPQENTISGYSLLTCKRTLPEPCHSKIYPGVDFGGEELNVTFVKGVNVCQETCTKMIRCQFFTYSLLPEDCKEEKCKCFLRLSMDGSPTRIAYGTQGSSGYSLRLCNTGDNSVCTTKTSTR
- Sequence (P03952 391-638 limits assumed): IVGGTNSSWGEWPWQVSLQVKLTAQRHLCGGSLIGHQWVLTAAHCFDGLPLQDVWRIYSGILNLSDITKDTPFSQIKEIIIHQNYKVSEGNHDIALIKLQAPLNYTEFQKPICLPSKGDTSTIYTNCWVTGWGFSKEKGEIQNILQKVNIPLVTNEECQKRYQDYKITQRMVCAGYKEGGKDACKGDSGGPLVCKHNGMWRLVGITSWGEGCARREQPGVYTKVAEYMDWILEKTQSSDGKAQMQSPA
- TEST: Inhibition of human plasma kallikrein using H-D-Pro-Phe-Arg-p-nitroaniline as substrate assessed as inhibition constant
pKi: −log10 of the molar value.
READOUT_KIND: pKi

COMPOUND	pKi
NCc1cccc(-n2nc(C(F)(F)F)cc2C(=O)Nc2cccc(C(OCC3CC3)c3ccccc3)c2)c1 (configuration not stated)	10.00
NCc1cccc(-n2nc(C(N)=O)cc2C(=O)Nc2cc(C(NCC3CC3)c3ccccc3)ccc2F)c1 (configuration not stated)	10.00

----------
- TARGET_UNDER_TEST: Coagulation factor XII (Homo sapiens, UniProt P00748)
- Sequence (P00748 20-372 limits assumed): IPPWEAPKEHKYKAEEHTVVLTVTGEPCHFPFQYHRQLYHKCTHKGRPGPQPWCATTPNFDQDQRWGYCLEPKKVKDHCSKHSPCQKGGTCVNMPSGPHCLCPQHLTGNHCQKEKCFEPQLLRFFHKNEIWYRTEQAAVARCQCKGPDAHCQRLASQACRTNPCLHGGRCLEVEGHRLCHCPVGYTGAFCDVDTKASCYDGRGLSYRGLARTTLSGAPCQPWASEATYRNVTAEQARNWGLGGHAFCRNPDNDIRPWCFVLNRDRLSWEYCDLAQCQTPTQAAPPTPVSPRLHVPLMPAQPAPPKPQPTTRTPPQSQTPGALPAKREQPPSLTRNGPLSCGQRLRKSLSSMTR
- Sequence (P00748 373-615 limits assumed): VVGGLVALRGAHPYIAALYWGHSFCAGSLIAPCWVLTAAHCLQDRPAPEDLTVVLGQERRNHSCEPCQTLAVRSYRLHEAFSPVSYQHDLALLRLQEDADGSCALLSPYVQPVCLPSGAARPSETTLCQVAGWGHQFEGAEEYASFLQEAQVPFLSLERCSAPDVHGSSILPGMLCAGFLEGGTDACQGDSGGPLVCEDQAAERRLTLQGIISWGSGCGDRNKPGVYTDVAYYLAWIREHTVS
- TEST: Inhibition of human fXIIa using H-DPro-Phe-Arg-AFC as substrate
READOUT_KIND: IC50

Request: // IC50 lookup, key: `COc1ccnc(CNC(=O)c2cn(Cc3ccc(Cn4ccccc4=O)cc3)nc2C(F)(F)F)c1F`
Result: > 4 µM
